B1: Membrane-associated guanylate kinase, WW and PDZ domain-containing protein 2, residues 601 to 682; numbered along this chain, Q86UL8 (parent)
chain: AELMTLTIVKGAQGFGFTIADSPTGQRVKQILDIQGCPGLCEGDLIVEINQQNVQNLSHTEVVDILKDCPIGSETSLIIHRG

Variants of: B1
Assay details: abundance fitness (aPCA) (normalised: wild type 0, dead -1); higher = more abundant; growth selection in yeast, the domain comes from the species named
Assay context: Homo sapiens
Experimental endpoint: abundance fitness

Sample records with abundance fitness:
- Mutant: "D68M"
  Experimental endpoint: "abundance fitness"
  Val: 0.027
- Mutant: "D44Y"
  Experimental endpoint: "abundance fitness"
  Val: -0.71
- Mutant: "N53P"
  Experimental endpoint: "abundance fitness"
  Val: -0.001

Consider the following items and state reported abundance fitness for each.
1. D33H
2. I71E
3. I65A

1. -0.088
2. -0.033
3. -0.048
